# Tested on: Saccharomyces cerevisiae BY4741 SeMeCo community
# MEASUREMENT_NOTES: z-score of subpopulation abundance vs DMSO median, subpopulation auxotrophic for LUM; higher = larger share of this subpopulation than in DMSO controls
# EXPERIMENTAL_CONDITIONS: 10 µM; 24 h; SM minimal medium; subpopulation (auxotrophy): LUM
Counter-ions that a name gives are not always drawn.
Kindly return Y if reported z-score of subpopulation abundance is no lower than 0.4; return N if it is lower.

C[C@@H]1C/C=C/C=C/C=C/C=C/[C@H](O[C@@H]2O[C@H](C)[C@@H](O)[C@H](N)[C@@H]2O)C[C@@H]2O[C@](O)(C[C@@H](O)C[C@H]3O[C@@H]3/C=C/C(=O)O1)C[C@H](O)[C@H]2C(=O)O | Y

Record `C#C[C@]1(O)CC[C@H]2[C@@H]3CCc4cc(OC5CCCC5)ccc4[C@H]3CC[C@@]21C` ; criterion: z-score of subpopulation abundance no lower than 0.4. Met? N

z-score of subpopulation abundance >= 0.4 for CCCN1CCCC[C@H]1C(=O)Nc1c(C)cccc1C [Ropivacaine HCl] ? N

// inclusive: z-score of subpopulation abundance at least 0.4? input: `C=C[C@]1(C)C[C@@H](OC(=O)CS[C@@H]2C[C@H]3CC[C@@H](C2)N3C)[C@]2(C)[C@H](C)CC[C@]3(CCC(=O)[C@H]32)[C@@H](C)[C@@H]1O` Y

Please tell me: is the molecule COc1ccc2[nH]c([S+]([O-])Cc3ncc(C)c(OC)c3C)nc2c1 (stereo unspecified) [Omeprazole Sodium] at or over 0.4 in terms of z-score of subpopulation abundance? N

Please check the record `Nc1ccc(S(=O)(=O)Nc2ccccn2)cc1` and state if its z-score of subpopulation abundance is at or above 0.4. N

Test whether the molecule Cc1ccc(Sc2ccccc2N2CCNCC2)c(C)c1 [Vortioxetine] records z-score of subpopulation abundance of 0.4 or higher. N

Is the recorded value of z-score of subpopulation abundance equal to or greater than 0.4 for this molecule? COc1c(N2C[C@@H]3CCCN[C@@H]3C2)c(F)cc2c(=O)c(C(=O)O)cn(C3CC3)c12 [Moxifloxacin HCl] Y

Hi team, for `CC[C@@H]1/C=C(\C)C[C@H](C)C[C@H](OC)[C@H]2O[C@@](O)(C(=O)C(=O)N3CCCC[C@H]3C(=O)O[C@H](/C(C)=C/[C@@H]3CC[C@H](Cl)[C@H](OC)C3)[C@H](C)[C@@H](O)CC1=O)[C@H](C)C[C@@H]2OC` , is the recorded z-score of subpopulation abundance at or above 0.4? Y

Quick check: does `CN1CCc2cc3c(cc2C(=O)Cc2ccc4c(c2C1)OCO4)OCO3` have z-score of subpopulation abundance greater than or equal to 0.4? Y

Hello, I need to know if CN1CCOC(c2ccccc2)c2ccccc2C1 (stereo unspecified) [Nefopam HCl] has measured z-score of subpopulation abundance not below 0.4. Thanks! N

* * *

# Test system: Saccharomyces cerevisiae BY4741 SeMeCo community
# MEASUREMENT_NOTES: z-score of subpopulation abundance vs DMSO median, subpopulation auxotrophic for HL; higher = larger share of this subpopulation than in DMSO controls
# EXPERIMENTAL_CONDITIONS: 10 µM; 24 h; SM minimal medium; subpopulation (auxotrophy): HL
Counter-ions that a name gives are not always drawn.
Item-by-item account of z-score of subpopulation abundance
Just the number, please, no unit attached.

Use the examples below as a reference point.
CN(Cc1cnc2nc(N)nc(N)c2n1)c1ccc(C(=O)N[C@@H](CCC(=O)O)C(=O)O)cc1 [Methotrexate] | 6.68
CC(C)c1c(C(=O)Nc2ccccc2)c(-c2ccccc2)c(-c2ccc(F)cc2)n1CC[C@@H](O)C[C@@H](O)CC(=O)O [Atorvastatin] | 5.39

Any idea what its z-score of subpopulation abundance is? The molecule is CCN(CC)CCOc1ccc2c(c1)C(=O)c1cc(OCCN(CC)CC)ccc1-2 [Tilorone dihydrochloride] -0.65

Look up z-score of subpopulation abundance: C#C[C@]1(O)CC[C@H]2[C@@H]3CCc4cc(OC5CCCC5)ccc4[C@H]3CC[C@@]21C [Quinestrol] 0.28

Each recorded value in this set is attributed to the supplement of paper PMC8975748.
